- TARGET OR TEST SYSTEM: Core-binding factor subunit beta (Homo sapiens)
- Sequence (Q13951 whole entry): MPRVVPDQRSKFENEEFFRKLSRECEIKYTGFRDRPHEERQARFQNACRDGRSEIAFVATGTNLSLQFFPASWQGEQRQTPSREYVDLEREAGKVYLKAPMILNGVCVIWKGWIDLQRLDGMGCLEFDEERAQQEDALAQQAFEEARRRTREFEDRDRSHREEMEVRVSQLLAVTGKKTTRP
- EXPERIMENT: Fluorescence Resonance Energy Transfer (FRET) Assay
PARAMETER: IC50 (nM)

FC(F)(F)Oc1ccc2[nH]c(-c3ccc(OCCN4CCN(Cc5ccccc5)CC4)cn3)nc2c1 [US10562890, Compound Al-14-95]; 2650
COc1cc(OCCN2CCN(Cc3ccccc3)CC2)cnc1-c1nc2cc(OC(F)(F)F)ccc2[nH]1 [US10562890, Compound Al-14-100]; 2160
